Where do these numbers come from? They come from patent US8519007B2.

- ASSAYED_TARGET: androgen receptor (Homo sapiens)
- Sequence (P10275 with tags, fused parts or gaps DUP590-628/H875Y, form open): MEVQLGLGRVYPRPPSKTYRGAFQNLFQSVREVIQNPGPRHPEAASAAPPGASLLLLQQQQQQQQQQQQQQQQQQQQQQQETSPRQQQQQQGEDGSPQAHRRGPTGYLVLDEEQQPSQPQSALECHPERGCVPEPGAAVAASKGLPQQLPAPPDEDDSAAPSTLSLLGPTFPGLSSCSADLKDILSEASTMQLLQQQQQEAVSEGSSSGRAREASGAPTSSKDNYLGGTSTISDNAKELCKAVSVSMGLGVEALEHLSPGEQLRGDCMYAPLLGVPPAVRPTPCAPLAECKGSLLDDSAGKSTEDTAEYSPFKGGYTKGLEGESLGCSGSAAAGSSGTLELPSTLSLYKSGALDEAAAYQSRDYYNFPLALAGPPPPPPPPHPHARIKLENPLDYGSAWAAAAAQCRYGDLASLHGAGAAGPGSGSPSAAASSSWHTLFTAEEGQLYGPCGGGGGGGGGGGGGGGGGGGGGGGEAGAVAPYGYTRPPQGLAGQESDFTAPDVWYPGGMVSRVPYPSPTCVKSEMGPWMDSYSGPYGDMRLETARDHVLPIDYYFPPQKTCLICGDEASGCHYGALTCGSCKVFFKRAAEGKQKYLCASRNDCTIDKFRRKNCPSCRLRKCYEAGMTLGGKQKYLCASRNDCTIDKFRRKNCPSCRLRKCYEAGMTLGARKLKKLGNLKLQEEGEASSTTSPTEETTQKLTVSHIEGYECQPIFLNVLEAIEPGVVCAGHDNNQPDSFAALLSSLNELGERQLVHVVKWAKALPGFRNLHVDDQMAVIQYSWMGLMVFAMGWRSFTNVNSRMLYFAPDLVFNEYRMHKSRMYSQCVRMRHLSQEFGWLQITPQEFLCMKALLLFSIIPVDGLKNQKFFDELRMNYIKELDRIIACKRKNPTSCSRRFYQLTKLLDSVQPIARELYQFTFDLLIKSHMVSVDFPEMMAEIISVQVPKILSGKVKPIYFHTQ
- ASSAY_OVERVIEW: PSA promoter luciferase reporter assay in 103E cells (AR transcriptional activity)
- DETAILS: maximal inhibition at 50 μM
PROPERTY_NAME: Inhibitionmax (%) of AR activity

Illustrative cases are given below, each with its answer.
| SMILES_RECORD | Inhibitionmax (%) of AR activity |
| --- | --- |
| CC(C)c1cc2c(cc1O)[C@@]1(C)CCCC(C)(C)[C@H]1OC2=O | 19 ± 6% (50 μM) |
| C=C1CC[C@@H]2[C@](C)(CCC[C@]2(C)C(=O)O)[C@H]1CC/C(C)=C/CO | 87 ± 3% (50 μM) |
| COc1c(C(C)C)cc2c(c1O)[C@@]1(C)CCCC(C)(C)[C@@H]1CC2=O | 77 ± 2% (50 μM) |

Please find the next compound below.
Query block: For CC(C)C1=C[C@]2(O)CC[C@H]3C(C)(C)CCC[C@]3(C)C2=CC1=O , what is its reported Inhibitionmax (%) of AR activity?
Result block: 68 ± 6% (50 μM)
